- Tested system: human ether-à-go-go-related gene (hERG) potassium channel (human, UniProt Q12809);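 further: peak tail current of the secondary pulse compared with the same well before compound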
- Sequence (Q12809 whole entry, looked up): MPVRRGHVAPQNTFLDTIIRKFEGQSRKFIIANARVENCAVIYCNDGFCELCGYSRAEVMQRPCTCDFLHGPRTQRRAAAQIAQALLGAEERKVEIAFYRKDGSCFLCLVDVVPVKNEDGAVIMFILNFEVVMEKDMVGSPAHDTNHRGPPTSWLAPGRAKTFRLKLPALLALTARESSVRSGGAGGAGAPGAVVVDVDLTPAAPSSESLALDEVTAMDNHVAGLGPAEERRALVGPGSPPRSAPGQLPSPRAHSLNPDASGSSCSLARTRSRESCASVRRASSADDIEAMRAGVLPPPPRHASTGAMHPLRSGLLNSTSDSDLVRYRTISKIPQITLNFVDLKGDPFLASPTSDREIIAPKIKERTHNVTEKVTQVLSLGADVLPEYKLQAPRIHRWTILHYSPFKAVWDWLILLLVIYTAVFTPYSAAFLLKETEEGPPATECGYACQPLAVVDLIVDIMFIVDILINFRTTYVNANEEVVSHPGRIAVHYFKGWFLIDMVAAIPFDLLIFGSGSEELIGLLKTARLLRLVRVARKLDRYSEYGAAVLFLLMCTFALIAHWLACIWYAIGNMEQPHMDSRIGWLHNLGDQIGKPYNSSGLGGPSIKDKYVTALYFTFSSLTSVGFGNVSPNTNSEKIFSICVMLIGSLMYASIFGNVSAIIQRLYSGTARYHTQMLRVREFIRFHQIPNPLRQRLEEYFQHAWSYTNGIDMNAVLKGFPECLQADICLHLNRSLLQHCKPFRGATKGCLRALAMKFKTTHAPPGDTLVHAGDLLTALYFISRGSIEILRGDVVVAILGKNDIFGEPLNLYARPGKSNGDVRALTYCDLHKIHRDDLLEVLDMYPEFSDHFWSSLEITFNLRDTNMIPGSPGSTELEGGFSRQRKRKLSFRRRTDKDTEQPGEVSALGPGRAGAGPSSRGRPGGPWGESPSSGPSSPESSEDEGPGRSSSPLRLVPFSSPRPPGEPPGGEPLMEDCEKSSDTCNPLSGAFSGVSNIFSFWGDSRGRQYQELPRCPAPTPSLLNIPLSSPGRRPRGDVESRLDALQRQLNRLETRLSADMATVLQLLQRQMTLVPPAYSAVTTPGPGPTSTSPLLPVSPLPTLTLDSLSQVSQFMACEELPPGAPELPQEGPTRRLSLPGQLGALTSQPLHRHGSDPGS
- Test: primary screen, population patch clamp on CHO cells stably expressing hERG; higher = less effect of the substance
The campaign covered roughly 310,000 compounds. About 14,000 (4.5%) showed an effect of 50% or more. The effect is printed as a negative number. Shown is part of a subset that was picked to be rich in strong results.
Outcome measure: hERG current change (%, negative = inhibition) at 10uM (%)
Give bare numbers, in %.

Give hERG current change (%, negative = inhibition) at 10uM for each listed item.
1. CCN(CC)C(=O)C1CCCN(Cc2ccccc2)C1 (centres unmarked)
2. CC(C)NC(=O)C(Cc1ccccc1)N1C(=O)c2ccccc2C1=O (centres unmarked)
3. CCCc1c(C(=O)Nc2ccc(F)cc2)cnn1-c1ccccc1

result:
1. 9.57
2. -4.63
3. 12.5

Give hERG current change (%, negative = inhibition) at 10uM for each listed item.
1. COc1cccc(-n2nnc(S(=O)(=O)c3ccc(C)cc3)c2N)c1
2. CC(=O)N/C(=C/c1ccc2c(c1)OCO2)C(=O)NCCO

result:
[10.5, 9.66]

Give hERG current change (%, negative = inhibition) at 10uM for each listed item.
1. COc1ccc(CCN(C)C(=O)C2CCN(Cc3ccccc3)CC2)cc1OC.O=C(O)C(=O)O
2. COc1ccc(-c2cn(Cc3ccc(C(N)=O)cc3)c(-c3ccc(Cl)nc3)n2)cc1
3. CN(Cc1ccccc1)C(=O)C1CCCN(Cc2ccc(Cl)cc2)C1.O=C(O)C(=O)O (centres unmarked)
4. COc1ccc(CCN(C)C(=O)C2CCN(Cc3ccc(C)cc3)CC2)cc1OC.O=C(O)C(=O)O
5. O=C(c1ccco1)N1CCN(C(=O)c2cnn(-c3ccc(Cl)cc3)c2C2CCNCC2)CC1
6. Cc1cccc(C)c1-n1ncc(C(=O)NC2CCCC2)c1C1CCNCC1
7. C/C(=N\Nc1ccc(S(N)(=O)=O)cc1[N+](=O)[O-])c1cccs1
8. Br.CC1(C(=O)CSc2ncn[nH]2)CCC(=O)O1 (centres unmarked)

result:
[3.36, -71.4, -71, -60.8, 15, 18.9, 25.7, 2.21]

Give hERG current change (%, negative = inhibition) at 10uM for each listed item.
1. O=C(NCCO)/C(=C/c1ccc2c(c1)OCO2)NC(=O)c1ccc(Br)cc1
2. Cc1ccc(-n2ncc(C(=O)Nc3cc(Cl)ccc3C)c2C2CCNCC2)cc1C.Cl
3. Cn1c2ccccc2c2c(C(=O)NCC3CCCO3)cn(C3CCCC3)c(=O)c21 (centres unmarked)
4. COc1ccc(CCN(C)C(=O)C2CCCN(Cc3ccc(OC)c(OC)c3)C2)cc1OC.O=C(O)C(=O)O (centres unmarked)
5. COc1ccc(-c2cnc(N)n2CC2CCCO2)cc1 (centres unmarked)
6. COc1ccccc1OCC(=O)Nc1ccccc1C(=O)N1CCCCC1
7. COc1ccc(NC(C)=O)cc1S(=O)(=O)N1CCN(C(=O)c2ccccc2F)CC1
8. COc1ccc(CCC(=O)Nc2cccc(Cl)c2)cc1

result:
-69.5
-35.1
-0.664
-3.31
-5.53
11.6
-7.16
-1.25

Give hERG current change (%, negative = inhibition) at 10uM for each listed item.
1. Cc1ccc(-n2ncc(C(=O)Nc3cc(Cl)ccc3Cl)c2C2CCNCC2)cc1.Cl
2. COc1ccc(OC)c(CN2CCC(C(=O)N(C)CCc3ccc(OC)c(OC)c3)CC2)c1.O=C(O)C(=O)O

result:
-62
-11.5
